These measurements were taken from patent US10766865B2.

Molecular target: PKM2 (Homo sapiens, UniProt P14618)
Experiment: PKM2 Biochemical Assay
Conditions: % maximum response in a biochemical assay as compared with Fructose 1,6-bisphosphate
Sequence (P14618 whole entry): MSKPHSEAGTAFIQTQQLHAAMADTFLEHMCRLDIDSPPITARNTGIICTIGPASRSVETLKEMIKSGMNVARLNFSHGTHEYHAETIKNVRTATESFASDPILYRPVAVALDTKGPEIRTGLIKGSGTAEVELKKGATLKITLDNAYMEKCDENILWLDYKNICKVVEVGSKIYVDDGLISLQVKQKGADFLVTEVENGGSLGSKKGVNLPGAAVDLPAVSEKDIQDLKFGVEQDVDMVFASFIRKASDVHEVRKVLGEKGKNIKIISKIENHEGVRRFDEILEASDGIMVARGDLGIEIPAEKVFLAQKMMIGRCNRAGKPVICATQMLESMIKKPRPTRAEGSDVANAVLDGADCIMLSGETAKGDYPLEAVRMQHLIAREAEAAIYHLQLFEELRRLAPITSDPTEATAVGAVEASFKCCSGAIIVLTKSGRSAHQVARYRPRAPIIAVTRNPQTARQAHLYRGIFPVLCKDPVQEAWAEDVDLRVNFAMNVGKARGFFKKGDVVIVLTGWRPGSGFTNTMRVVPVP
Measurement type: Max. Resp. (%)
Entry rule: numbers only, all in %.

Some solved entries appear below for comparison.
> print(dat)
                                   molecule  observed.value
1  Nc1cccc(Cl)c1CN(CCN1CCCC(F)C1)C(=O)c1cc(C(F)(F)F)n[nH]1 (stereo not drawn) [Example 236]              73
2  O=C(c1cc(C(F)(F)F)n[nH]1)N(CCC1CCS(=O)(=O)C1)Cc1c(Cl)cccc1Cl (stereo not drawn) [Example 64]              71

Max. Resp. lookup needed for Nc1cccc(Cl)c1CN(CCN1CC[C@H](F)C1)C(=O)c1cc(C(F)(F)F)n[nH]1 [Example 241] , thanks.
100

Also O=C(c1cc(Br)n[nH]1)N(Cc1ccc(O)cc1F)CC1CCC1 [Example 245] ?
100

Also O=C(c1cc(C(F)(F)F)n[nH]1)N(CCN1CCCCCC1)Cc1cccc([N+](=O)[O-])c1Cl [Example 210] ?
100

Also O=C(c1cc(C(F)(F)F)n[nH]1)N(CCN1CCS(=O)(=O)CC1)Cc1ccccc1Cl [Example 107] ?
85

Also O=C(c1cc(Br)n[nH]1)N(Cc1cccc2[nH]c(=O)sc12)CC1CCC1 [Example 10] ?
127

Also CC1CCCN(CCN(Cc2cc(N)ccc2Cl)C(=O)c2cc(C(F)(F)F)n[nH]2)C1 (stereo not drawn) [Example 200] ?
100

Also CCN(CC)CCN(Cc1c(Cl)cccc1Cl)C(=O)c1cc(C(F)(F)F)n[nH]1 [Example 169] ?
100

Also CN(C)CCCN(Cc1ccccc1Cl)C(=O)c1cc(C(F)(F)F)n[nH]1 [Example 186] ?
100

Also O=C(c1cc(C(F)(F)F)n[nH]1)N(CCC1CCS(=O)(=O)C1)Cc1ccccc1F (stereo not drawn) [Example 63] ?
87

Also O=C(c1cc(C(F)(F)F)n[nH]1)N(CCC1CCS(=O)(=O)C1)Cc1cccc([N+](=O)[O-])c1Cl (stereo not drawn) [Example 94] ?
69

----------
Tested on: Panc-1
Assay: Cell line sensitivity (viability, ATPlite)
Type: cell-based
Conditions: Homo sapiens; Panc-1, Pancreatic; BME media, 72 hours; read-out: Sensitivity to Example 1 (IC50)
Measurement type: IC50

IC50 lookup needed for O=C(c1cc(C(F)(F)F)n[nH]1)N(Cc1ccc(O)cc1F)CC1CCC1 [Example 1] , thanks.
14 nM

----------
System: PL45
Assay: Cell line sensitivity (viability, ATPlite)
Type: cell-based
Conditions: PL45, Pancreatic; BME media, 72 hours; read-out: Sensitivity to Example 1 (IC50)
Measurement type: IC50

IC50 lookup needed for O=C(c1cc(C(F)(F)F)n[nH]1)N(Cc1ccc(O)cc1F)CC1CCC1 , thanks.
> 30 µM

----------
System: A172
Assay: Cell line sensitivity (viability, ATPlite)
Assay type: cell-based
Details: Homo sapiens, A 172; A172, Brain; BME media, 72 hours; read-out: Sensitivity to Example 1 (IC50)
Measurement type: IC50 (nM)
Entry rule: numbers only, all in nM.

IC50 lookup needed for O=C(c1cc(C(F)(F)F)n[nH]1)N(Cc1ccc(O)cc1F)CC1CCC1 [Example 1] , thanks.
2300

----------
Target: PKM2 (Homo sapiens)
Assay: Cell-Based Pyruvate Kinase Activity Assay, NCI-H1299
Parameters: host or cells: A549 or NCI-H1299 lung cancer cells
Details: NCI-H1299, 30 minutes with compound, n = 4; read-out: Cellular PKM2 activation EC50
Sequence (P14618 2-531 limits assumed): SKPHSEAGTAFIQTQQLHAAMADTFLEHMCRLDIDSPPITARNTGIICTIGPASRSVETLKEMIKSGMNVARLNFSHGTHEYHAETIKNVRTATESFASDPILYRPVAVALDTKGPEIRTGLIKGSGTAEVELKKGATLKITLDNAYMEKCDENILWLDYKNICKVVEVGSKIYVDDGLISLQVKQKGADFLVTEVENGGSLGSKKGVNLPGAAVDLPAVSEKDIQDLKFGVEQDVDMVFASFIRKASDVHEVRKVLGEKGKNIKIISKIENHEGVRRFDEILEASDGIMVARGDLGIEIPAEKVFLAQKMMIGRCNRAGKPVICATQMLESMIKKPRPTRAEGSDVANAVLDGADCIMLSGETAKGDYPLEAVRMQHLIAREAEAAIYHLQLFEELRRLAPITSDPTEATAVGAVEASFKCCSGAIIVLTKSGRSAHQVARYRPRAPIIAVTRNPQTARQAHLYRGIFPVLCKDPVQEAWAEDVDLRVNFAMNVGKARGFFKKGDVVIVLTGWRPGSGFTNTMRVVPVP
Items are presented alongside their recorded pEC50.
pEC50 is a log-scale quantity: -log10 of the concentration expressed in molar.

> print(dat)
                                  structure  observed.value
1  O=C(c1cc(Cl)n[nH]1)N(Cc1ccc(O)cc1F)CC1CCC1            6.52

pEC50 lookup needed for O=C(c1cc(C(F)(F)F)n[nH]1)N(Cc1ccc(O)cc1F)CC1CCC1 , thanks.
6.66

----------
Items are presented alongside their recorded Max. Resp..
Target: UniProtKB P14618
Assay: PKM2 Biochemical Assay
Conditions: % maximum response in a biochemical assay as compared with Fructose 1,6-bisphosphate
Entry rule: numbers only, all in %.

Some solved entries appear below for comparison.
> print(dat)
                                   molecule  measurement.type  observed.value
1  CCOCCCN(Cc1ccccc1Cl)C(=O)c1cc(C(F)(F)F)n[nH]1        Max. Resp.              47
2  CS(=O)(=O)N1CCCC(CCN(Cc2ccccc2Cl)C(=O)c2cc(C(F)(F)F)n[nH]2)C1 (stereo not shown)        Max. Resp.             100
3  O=C(c1cc(C(F)(F)F)n[nH]1)N(CCN1CCCCCC1)Cc1c(Cl)cccc1[N+](=O)[O-]        Max. Resp.             100

Max. Resp. lookup needed for O=C(c1cc(C(F)(F)F)n[nH]1)N(CCC1CCS(=O)(=O)C1)Cc1ccncc1 (stereo not shown) , thanks.
35

----------
Target: PKM2 (Homo sapiens)
Test: PKM2 Biochemical Assay
Conditions: % maximum response in a biochemical assay as compared with Fructose 1,6-bisphosphate
Measurement type: Max. Resp. (%)
Entry rule: numbers only, all in %.

> print(dat)
                                   molecule  unit.descriptor  observed.value
1  CC[C@](C)(N)C(=O)Oc1ccc(CN(CC2CCC2)C(=O)c2cc(Cl)n[nH]2)c(F)c1 [Example 115]                %             104

Lab note: need Max. Resp. for O=C(c1cc(C(F)(F)F)n[nH]1)N(CCC1CCS(=O)(=O)CC1)Cc1c(F)cccc1F [Example 85] on PKM2 (Homo sapiens), anyone have it?
100

Also O=C(c1cc(C(F)(F)F)n[nH]1)N(CCN1CCCC1)Cc1cccc2[nH]ccc12 [Example 164] ?
100

Also O=C(c1cc(C(F)(F)F)n[nH]1)N(CCN1CCS(=O)(=O)CC1)Cc1cccc(F)c1F [Example 111] ?
64

----------
Tested on: PC3 cells
Test: Cell Proliferation Assay, PC3
Type: cell-based
Conditions: Homo sapiens, PC-3; PC3, BME media lacking nonessential amino acids, 72 hours, ATPlite; read-out: Percent viability (EC50), Average
Measurement type: pEC50
pEC50 is a log-scale quantity: -log10 of the concentration expressed in molar.

Some solved entries appear below for comparison.
> print(dat)
                                   compound  observed.value
1  O=C(c1cc(C(F)(F)F)n[nH]1)N(Cc1ccc(O)cc1F)CC1CCC1            6.81
2  Nc1cccc(Cl)c1CN(CCN1CCC(O)C1)C(=O)c1cc(C(F)(F)F)n[nH]1 (stereo not shown)            7.03

pEC50 lookup needed for Nc1cccc(Cl)c1CN(CCN1CCCC(F)C1)C(=O)c1cc(C(F)(F)F)n[nH]1 (stereo not shown) , thanks.
7.48

Also Nc1cccc(F)c1CN(CCC1CCS(=O)(=O)CC1)C(=O)c1cc(C(F)(F)F)n[nH]1 ?
7.33

----------
Target: PKM2 (Homo sapiens, UniProt P14618)
Experiment: PKM2 Biochemical Assay
Settings: % maximum response in a biochemical assay as compared with Fructose 1,6-bisphosphate
Classification field: enter True for Max. Resp. values not below 30%, False for values below it.

> print(dat)
                                   compound  class
1  Nc1cccc(CN(CCN2CCS(=O)(=O)CC2)C(=O)c2cc(C(F)(F)F)n[nH]2)c1   True
2  CCCC(C)N(Cc1ccccc1)C(=O)c1cc(C(F)(F)F)n[nH]1 (centres unmarked)  False
3  O=C(c1cc(C(F)(F)F)n[nH]1)N(CCC1CCCCO1)Cc1ccccc1Cl (centres unmarked)   True
4  O=C(c1cc(C(F)(F)F)n[nH]1)N(Cc1ccccc1F)c1ncco1   True

Here's the next entry for you.
Reported Max. Resp. reaches at least 30% for O=C(c1cc(Br)n[nH]1)N(Cc1ccc(O)cc1F)CC1CNC1 ?
True

----------
Target: PKM2 (Homo sapiens)
Experiment: PKM2 Biochemical Assay
Items are presented alongside their recorded AC50.
Entry rule: numbers only, all in µM.

> print(dat)
                                   molecule               system  measurement.type  unit.descriptor  observed.value
1  CC(c1ccccc1)N(CC1CCC1)C(=O)c1cc(Br)n[nH]1 (stereo not drawn)  PKM2 (Homo sapiens)              AC50               µM            1.48
2  COCCCN(Cc1ccccc1Cl)C(=O)c1cc(C(F)(F)F)n[nH]1  PKM2 (Homo sapiens)              AC50               µM            4.64
3  CCN(CC)CCN(Cc1ccccc1Cl)C(=O)c1cc(Cl)n[nH]1  PKM2 (Homo sapiens)              AC50               µM            1.15
4  CCN1CCCC1CN(Cc1ccccc1Cl)C(=O)c1cc(C(F)(F)F)n[nH]1 (stereo not drawn)  PKM2 (Homo sapiens)              AC50               µM           0.148
5  COCCCN(Cc1ccccc1F)C(=O)c1cc(C(F)(F)F)n[nH]1  PKM2 (Homo sapiens)              AC50               µM            9.77

Please find the next molecule below.
AC50 lookup needed for CC(C)(O)CCN(Cc1ccc(O)cc1F)C(=O)c1cc(C(F)(F)F)n[nH]1 , thanks.
23
